molecular target: sGC (Homo sapiens, UniProt Q02108+Q02153); experiment: Cell-based sGC Functional Assay (CASA Assay), cGMP generation in CHO-K1/sGC cells; details: without ODQ incubation, read-out: inflection points (IP)
Sequence (Q02108 whole entry): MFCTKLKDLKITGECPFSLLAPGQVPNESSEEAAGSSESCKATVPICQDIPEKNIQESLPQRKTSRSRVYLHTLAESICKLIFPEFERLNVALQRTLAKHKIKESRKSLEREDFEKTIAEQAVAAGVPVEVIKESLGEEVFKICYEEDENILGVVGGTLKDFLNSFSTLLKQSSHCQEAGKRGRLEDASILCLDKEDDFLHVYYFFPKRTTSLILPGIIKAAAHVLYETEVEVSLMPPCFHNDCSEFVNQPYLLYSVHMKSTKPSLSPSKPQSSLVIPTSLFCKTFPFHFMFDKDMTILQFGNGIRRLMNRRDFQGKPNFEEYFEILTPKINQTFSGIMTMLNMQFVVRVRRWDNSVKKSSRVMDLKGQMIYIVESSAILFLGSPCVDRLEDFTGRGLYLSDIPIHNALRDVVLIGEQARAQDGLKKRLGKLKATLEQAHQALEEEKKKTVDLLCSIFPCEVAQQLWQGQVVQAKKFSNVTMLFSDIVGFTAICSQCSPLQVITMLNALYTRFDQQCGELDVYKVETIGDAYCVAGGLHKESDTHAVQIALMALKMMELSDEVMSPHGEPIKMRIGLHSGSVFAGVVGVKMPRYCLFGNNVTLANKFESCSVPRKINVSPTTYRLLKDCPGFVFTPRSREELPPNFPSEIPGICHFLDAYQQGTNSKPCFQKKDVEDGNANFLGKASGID
Sequence (Q02153 whole entry): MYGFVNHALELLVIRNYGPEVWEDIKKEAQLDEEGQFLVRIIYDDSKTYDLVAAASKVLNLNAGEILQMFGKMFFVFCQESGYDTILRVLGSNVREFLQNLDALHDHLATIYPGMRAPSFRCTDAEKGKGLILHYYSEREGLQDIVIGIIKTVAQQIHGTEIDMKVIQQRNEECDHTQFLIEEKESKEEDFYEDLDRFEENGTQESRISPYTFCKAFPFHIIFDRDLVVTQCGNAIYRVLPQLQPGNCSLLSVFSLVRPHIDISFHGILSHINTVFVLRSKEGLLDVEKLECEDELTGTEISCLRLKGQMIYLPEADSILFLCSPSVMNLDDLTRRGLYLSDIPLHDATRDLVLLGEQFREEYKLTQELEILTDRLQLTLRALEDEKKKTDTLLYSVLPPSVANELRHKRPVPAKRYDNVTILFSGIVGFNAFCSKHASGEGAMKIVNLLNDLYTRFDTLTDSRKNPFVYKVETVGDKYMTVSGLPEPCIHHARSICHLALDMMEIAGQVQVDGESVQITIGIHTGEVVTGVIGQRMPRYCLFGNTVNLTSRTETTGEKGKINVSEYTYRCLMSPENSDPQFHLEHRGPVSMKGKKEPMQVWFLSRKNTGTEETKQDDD
readout name: pEC50
Quick note: pEC50 means taking -log10 of the concentration in moles per liter.

Worked examples, 2 compounds total:
[[record]]
compound = "CC1(c2ccccc2)C(=O)Nc2nc(-c3nn(CCC(F)(F)C(F)(F)F)c4cc(Cl)ccc34)nc(N)c21 (stereo not drawn)"
readout_name = "pEC50"
assay_value = 7.30

[[record]]
compound = "CC1(c2ccccc2)C(=O)Nc2nc(-c3nn(CCC(F)(F)C(F)(F)F)c4cc(F)ccc34)nc(N)c21 (stereo not drawn)"
readout_name = "pEC50"
assay_value = 7.34


--- query ---
Problem: # get_value(readout='pEC50', item= CC1(c2ccccc2)C(=O)Nc2nc(-n3nc(CCC(F)(F)C(F)(F)F)c4cc(F)ccc43)nc(N)c21 (stereo not drawn) )
Result: 6.67
